# experimental-protocol: Cytotoxicity against human A549 cells assessed as inhibition of cell growth measured after 48 hrs by MTT assay
# Assay type: toxicity, cell-based
test-readout: IC50 at 48 h

// Input: CC1(C)C(c2cnn(-c3ccc(C(=O)O)cc3)c2)=Nc2ccc3ccccc3c21 . Output its IC50 at 48 h only.
> 100 µg/mL

// Input: CC1(C)C(c2cnn(-c3ccccc3)c2)=Nc2ccc(C(=O)O)cc21 . Output its IC50 at 48 h only.
> 100 µg/mL

// Input: CC1(C)C(c2cnn(-c3ccc(C(=O)O)cc3)c2)=Nc2ccc(Cl)cc21 . Output its IC50 at 48 h only.
> 100 µg/mL
